Assay: in vitro
Settings: human, plasma, half-life of the peptide, 50% human plasma, initial concentration between 13:2 and 330
Peptide text beside a SMILES is read from it.
Measure: half-life (min)
Write the answer as a number in min, unit excluded.

# input I'd like to know its half-life. The molecule in question is CC(C)[C@H](NC(=O)[C@H](Cc1c[nH]c2ccccc12)NC(=O)[C@H](Cc1ccccc1)NC(=O)[C@@H](NC(=O)[C@@H](NC(=O)[C@H](CCCCN)NC(=O)[C@@H](N)CCCCN)C(C)C)C(C)C)C(=O)N[C@@H](CCCCN)C(=O)N[C@@H](Cc1ccccc1)C(=O)N[C@@H](CCCCN)C(N)=O [KSL-W] (H-KKVVFWVKFK-NH2; N-terminus and C-terminus assumed)
# output 60
